- Assay comment: AUC (0 to t) in ICR mouse at 2 mg/kg, iv measured for 12 hrs by LC-MS/MS analysis
- Assay type: ADME, organism-based
- Design: dose 2 mg/kg, time 12 hrs, route iv
- Test context: in vivo
Endpoint name: AUC(0-t) at 12 h (ng·h/mL)
Answers are plain numbers, in ng·h/mL.

Query string: Need AUC(0-t) at 12 h of Cc1cc(/C=C/C#N)cc(C)c1Oc1nc(Nc2ccc(C#N)c(F)c2)nc2c1COC2.Cl , thanks.
Result string: 250

====

- Assay comment: Selectivity index, ratio of CC50 for cytotoxicity against human MT4 cells to EC50 for antiviral activity against HIV-1 RES056 harboring RT K103N/Y181C double mutant infected in human MT4 cells
- Type: toxicity, cell-based
- Test context: read-out: Ratio CC50/EC50
Assign selectivity ratio to each entry below.
Numbers only.

Please review the entries below; each comes with its answer.
- Molecule: "N#C/C=C/c1cc(F)c(Oc2nc(Nc3ccc(C#N)c(F)c3)nc3cc[nH]c23)c(F)c1"
  selectivity ratio: 16
- Molecule: "Cc1cc(C#N)cc(C)c1Oc1nc(NC2CCN(c3c(F)cc(NS(N)(=O)=O)cc3F)CC2)nc2ccsc12"
  selectivity ratio: 2
- Molecule: "Cc1cc(/C=C/C#N)cc(C)c1Oc1nc(NC2CCN(c3c(F)cc(N)cc3F)CC2)nc2ccsc12"
  selectivity ratio: 5
- Molecule: "Cc1cc(/C=C/C#N)cc(C)c1Oc1nc(NC2CCN(c3ccc(N)cc3F)CC2)nc2sccc12"
  selectivity ratio: 13
- Molecule: "Cc1cc(/C=C/C#N)cc(C)c1Oc1nc(NC2CCN(c3ccc(N)cc3F)CC2)nc2ccsc12"
  selectivity ratio: 26

Provide reported selectivity ratio for each item, in the same order as listed.
1. Cc1cc(/C=C/C#N)cc(C)c1Oc1nc(Nc2ccc(C#N)nc2)nc2c1COC2
2. N#C/C=C/c1cc(F)c(Oc2nc(Nc3ccc(C#N)c(F)c3)nc3c2COC3)c(F)c1
3. Cc1cc(C#N)cc(C)c1Oc1nc(NC2CCN(c3ccc(N)cc3)CC2)nc2sccc12

Result string:
[2980, 773, 18]
